system: PC-3 prostate; test: NCI-60 one-dose screen, 48 h (100 = growth as untreated, 0 = no growth, -100 = all killed); settings: 10 µM unless noted
The panel holds about 83,000 compounds, 20% with a hit somewhere; the sample as a whole holds those more often.
endpoint-name: growth (%)
Give just the number in %; leave the unit off.

Please review the entries below; each comes with its answer.
CCCC1C(C(=O)OCC)=C(N)Oc2cc(O)ccc21 (stereo not given)    77.5
O=S(=O)(c1cccc(NC2=Nc3cccc4cccc2c34)c1)N1CCCC1    52.4
Cc1[nH]n(-c2cccc(Cl)c2)c(=O)c1/C=C1\C=Nc2ccc(Br)cc21    31.2
COc1ccc(C(O)c2cc3c(N)c(C(=O)Nc4cccc(Br)c4C)sc3nc2C)cc1 (stereo not given)    26.9

Now take the following compound into account.
Request: Data request, read-out growth, for O=C(Nc1ccc2ncnc(Nc3ccc(Oc4cccc(F)c4)c(Cl)c3)c2c1)c1ccc(CNCCO)cc1
Result: 27.7

----------
tested on: ACHN renal; test: NCI-60 one-dose screen, 48 h (100 = growth as untreated, 0 = no growth, -100 = all killed); conditions: 10 µM unless noted
This is part of a sample that, as a whole, favours compounds with a hit. Of some 83,000 tested, about 20% had one in any assay. Calls of active or inactive are those of the source. Rule for the calls: active = growth percent below 10; inactive = the rest.
endpoint-name: growth

CC(=O)c1c(C)[nH]c(-c2nc3ccc(N4CCN(C)CC4)cc3[nH]2)c1-c1ccccc1    19.4% (inactive)
FC(F)(F)c1cccc(Oc2ccc(Nc3ncnc4ccc(OCCCN5CCOCC5)cc34)cc2Cl)c1    23.9% (inactive)
CC(=O)CCSc1ccc(OC(C)=O)cc1    103% (inactive)

Request: Data request, read-out growth, for Nc1nc(SN=Nc2ccc(S(N)(=O)=O)cc2)c2[nH]cnc2n1
Result: 15.9% (inactive)

Request: Data request, read-out growth, for COc1ccc(-c2cnnc3c(-c4cccc(C(F)(F)F)c4)cnn23)cc1
Result: 14.9% (inactive)

Request: Data request, read-out growth, for COc1ccc(C(O)c2cc3c(N)c(C(=O)Nc4ccccc4)sc3nc2C)cc1 (stereo not given)
Result: 25.7% (inactive)

Request: Data request, read-out growth, for CCNC(=S)NNC(=O)c1cc2ccc1CCc1ccc(cc1)CC2
Result: 107% (inactive)

Request: Data request, read-out growth, for Fc1ccc2nc3c(cc2c1)CSc1nnc(-c2ccc[nH]c2=S)n1N3
Result: 94% (inactive)

Request: Data request, read-out growth, for O=C(N/N=C/c1ccc(F)cc1)c1ccccc1Nc1cccc(C(F)(F)F)c1
Result: 102% (inactive)

Request: Data request, read-out growth, for O=C1Nc2c(ccc(Cl)c2Cl)/C1=C/c1ccc(F)cc1
Result: 85.9% (inactive)

----------
Test system: SK-MEL-2 melanoma
Assay: NCI-60 one-dose screen, 48 h
Conditions: 10 µM unless noted
Description: Growth inhibition of the SK-MEL-2 human tumor cell line is measured as a screen for anti-cancer activity. Cells are grown in 96 well plates and exposed to the test compound for 48 hours. Compounds are tested at a single concentration, which is 10^-5 M for most compounds. The reported endpoint is percent growth (GI% or GIPRCNT), where numbers from 0 - 100% represent growth inhibition, and numbers from -100% - 0 represent cell death. For example, a value of 40 represents 60% growth inhibition. […]
The panel holds about 83,000 compounds, 20% with a hit somewhere; the sample as a whole holds those more often. Activity calls are given as the source filed them. How the source made its calls: active means growth percent below 10; inactive means the rest.
Your answer must be one of the following: 1 (yes) = active, 0 (no) = inactive

Worked examples follow.
CCC(C)N(CCNc1cc(OC)cc2cccnc12)CCC(C)C (stereo not given)    0 (no)
C=C1C(=O)O[C@H]2[C@H]1CC/C(CNC(=O)/C=C/c1ccc(Br)cc1)=C\CC[C@@]1(C)O[C@@H]21    1 (yes)
O=C1c2cccnc2C(=O)c2nc3cc(N4CCN(C5CC5)CC4)ccc3nc21    1 (yes)
CC[N+](CC)(CCCC(C)[N+]1(Cc2ccccc2)C(C)=CC=C1C)Cc1ccccc1 (stereo not given)    0 (no)
Cc1cc(C)n(Nc2nc3ccccc3[nH]c2=O)c(=O)c1C#N    0 (no)
COc1ccc(-c2nc(SCCC(C)C)nc(N/N=C(/C)c3ccc(C)cc3)c2C#N)cc1    0 (no)
c1ccc2c(-c3c4ccsc4cc4[nH]c5ccccc5c34)c[nH]c2c1    0 (no)
COc1ccc(C2CC(c3cccc(Nc4ccncc4)c3)=NN2c2cc(Cl)cc(Cl)c2)cc1 (stereo not given)    0 (no)
O=C1CCC(NC(=S)Nc2ccccc2)N1 (stereo not given)    0 (no)

Request: Status in this test for O=C(Nc1cccc(Cl)c1)c1cc(Cl)ccc1O ?
Result: 1 (yes)
